# Assay overview: Drug level in anaesthetized dog heart administered as single iv dose
# Assay type: ADME, organism-based, Canis lupus familiaris
# Condition notes: in vivo, read-out: Drug uptake
Quantity measured: concentration (µM)

> print(dat)
                            compound.smiles  experimental.value
1  CC(C)(O)c1cccc(-c2ccc3nc(-c4ccc(Cl)cc4)cn3c2)c1                  40

###

pEC50 values for the compounds below.
# System: UniProtKB P43354
# Sequence (P43354 whole entry, the tested form may be a part): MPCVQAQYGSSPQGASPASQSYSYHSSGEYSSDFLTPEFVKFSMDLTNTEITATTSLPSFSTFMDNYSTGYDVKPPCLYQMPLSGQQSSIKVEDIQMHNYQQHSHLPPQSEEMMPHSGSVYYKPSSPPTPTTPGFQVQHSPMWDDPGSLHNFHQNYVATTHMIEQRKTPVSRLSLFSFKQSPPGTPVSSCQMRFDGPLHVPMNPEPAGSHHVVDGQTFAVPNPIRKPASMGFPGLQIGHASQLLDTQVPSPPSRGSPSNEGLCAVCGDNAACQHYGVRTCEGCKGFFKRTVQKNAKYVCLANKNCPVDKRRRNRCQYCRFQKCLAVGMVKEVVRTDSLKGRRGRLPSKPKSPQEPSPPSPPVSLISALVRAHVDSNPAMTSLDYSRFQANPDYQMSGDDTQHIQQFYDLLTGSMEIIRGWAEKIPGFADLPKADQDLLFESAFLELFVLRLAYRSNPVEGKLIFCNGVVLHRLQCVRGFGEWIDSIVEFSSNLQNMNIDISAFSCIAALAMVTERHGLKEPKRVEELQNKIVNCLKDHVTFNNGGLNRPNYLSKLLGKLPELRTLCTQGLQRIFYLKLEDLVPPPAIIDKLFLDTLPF
# Assay overview: Agonist activity at full-length Gal4-fused NOT (unknown origin) expressed in CHO cells by luciferase reporter gene assay
# Assay type: cell-based
# Condition notes: read-out: EC50
pEC50: −log10 of the molar value.
Quantity measured: pEC50

> print(dat)
                                    compound            system  quantity.measured  experimental.value
 1  OCc1cccc(-c2ccc3nc(-c4ccc(Cl)cc4)cn3c2)c1  UniProtKB P43354              pEC50        7.12 to 7.35
 2  Cc1c(CO)cccc1-c1ccc2nc(-c3ccc(Cl)cc3)cn2c1  UniProtKB P43354              pEC50              < 6.00
 3  CC(O)c1cccc(-c2ccc3nc(-c4ccc(Cl)cc4)cn3c2)c1 (single isomer, unassigned; (+))  UniProtKB P43354              pEC50                7.12
 4  Cc1cccc(-c2ccc3nc(-c4ccc(Cl)cc4)cn3c2)c1  UniProtKB P43354              pEC50              < 5.52
 5    O=C(Nc1ccccc1)c1cn2cc(-c3ccccn3)ccc2n1  UniProtKB P43354              pEC50                6.85
 6  CCCCC(O)c1cccc(-c2ccc3nc(-c4ccc(Cl)cc4)cn3c2)c1 (stereo not drawn)  UniProtKB P43354              pEC50              < 5.52
 7     O=C(Nc1nccs1)c1cn2cc(-c3ccccn3)ccc2n1  UniProtKB P43354              pEC50              < 6.00
 8  CNCc1cccc(-c2ccc3nc(-c4ccc(Cl)cc4)cn3c2)c1  UniProtKB P43354              pEC50              < 5.52
 9    O=C(Nc1ccccn1)c1cn2cc(-c3ccccn3)ccc2n1  UniProtKB P43354              pEC50              < 6.00
10  O=C(Nc1cc(F)cc(F)c1)c1cn2cc(-c3ccccn3)ccc2n1  UniProtKB P43354              pEC50              < 6.00
11     O=C(Nc1nncs1)c1cn2cc(-c3ccccn3)ccc2n1  UniProtKB P43354              pEC50              < 6.00
12  Clc1ccc(-c2cn3cc(-c4cccc(CN5CCCC5)c4)ccc3n2)cc1  UniProtKB P43354              pEC50              < 5.52
13  Cc1ccc(-c2ccc3nc(-c4ccc(Cl)cc4)cn3c2)cc1CO  UniProtKB P43354              pEC50              < 6.00

FYI, the data here is from ChEMBL document CHEMBL4368940.
